Data credit: patent US20220195070A1

# target_or_system: T1, SG115v1 (human, UniProt P01857 1-328 = IgG part)
# T1 construct: Carries the CH2 modifications of SG115 (Arg235, Arg236, Lys239, EU); Construct used in the ELISA is not described beyond the constant region; also called modified IgG heavy chain constant region SG115v1
# T1 sequence (P01857 other isoform, or with tags, fused parts or gaps limits assumed): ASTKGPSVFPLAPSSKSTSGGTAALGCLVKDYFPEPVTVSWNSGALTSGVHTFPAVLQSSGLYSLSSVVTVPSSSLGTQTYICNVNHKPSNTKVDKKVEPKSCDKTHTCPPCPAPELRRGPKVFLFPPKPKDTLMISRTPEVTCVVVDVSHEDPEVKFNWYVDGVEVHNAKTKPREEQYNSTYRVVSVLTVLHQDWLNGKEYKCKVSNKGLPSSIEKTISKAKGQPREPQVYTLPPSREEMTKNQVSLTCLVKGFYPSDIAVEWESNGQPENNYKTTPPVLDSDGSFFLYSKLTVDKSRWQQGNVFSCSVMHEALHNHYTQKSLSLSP
# experiment: ELISA, OD405 against dose (ng/mL, log axis 1-100)

{"binder": "SKA0052 (antibody, V domains shown, Recombinant rabbit monoclonal from B-cell cloning, expressed in FreeStyle 293-F cells; the first screen used B-cell culture supernatant; also called Anti-SG115 Antibody; rabbit Anti Fc-Mutation Antibody) VH: QSLEESGGDLVKSGASLTLTCTASGFSFSSSYYMCWVRQAPGKGLEWIACIYTGSNGDTYYASWANGRFTISKASSTTVTLQMTSLTAADTATYFCARYTYDDDGDYTSFNLWGPGTLVTVSS VL: ALVMTQTPSSVSADVGGTVTINCQASQNIYRNLAWYQQKPGQRPKLLIYGASNLEPGVPSRFKGSGSGTEFTLTISDLECDDAATYYCQSVGYSGSVDTFFYAFGGGTEVVVKG", "binding result": "binds"}
